target: human CB1 receptor (Homo sapiens); construct: expressed in transfected cells; host or cells: HEK293; assay: bioSensAll GAPL-Gi2 BRET biosensor assay in HEK293 cells transfected with hCB1; test compound added before EC75-80 of agonist CP55,940 (0.1 nM); type: cell-based; conditions: vs CP55,940 0.1 nM (EC75-80), read-out: CB1 wt Gi2 IC50

[
  {
    "molecule": "CC1(C(N)=O)CCN(c2nc(N3C[C@H]4C[C@H]4C3)nc3c2nc(-c2ccccc2Cl)n3-c2ccc(Cl)cc2)CC1",
    "IC50": "1.29 nM"
  },
  {
    "molecule": "CC(C)OC1(C(N)=O)CCN(c2nc(OCC(C)(C)O)nc3c2nc(-c2ccccc2Cl)n3-c2ccc(Cl)cc2)CC1",
    "IC50": "0.707 nM"
  },
  {
    "molecule": "CN(CC(C)(C)O)c1nc(N2CCC(C)(C(N)=O)CC2)c2nc(-c3ccc(C#N)nc3)n(-c3ccc(Cl)cc3)c2n1",
    "IC50": "6.33 nM"
  },
  {
    "molecule": "CN(CCO)c1nc(N2CCC(C(N)=O)CC2)c2nc(-c3ccccc3Cl)n(-c3ccc(Cl)cc3)c2n1",
    "IC50": "1.01 nM"
  },
  {
    "molecule": "CC(C)(O)COc1nc(N2CCC(C(N)=O)CC2)c2nc(-c3ccccc3Cl)n(-c3ccc(Cl)cc3)c2n1",
    "IC50": "7.69 nM"
  },
  {
    "molecule": "FC(F)(F)C1CCN(c2nc(OC3CCCOC3)nc3c2nc(-c2ccccc2Cl)n3-c2ccc(Cl)cc2)CC1 (stereo not shown)",
    "IC50": "1.42 nM"
  },
  {
    "molecule": "CCN(CCO)c1nc(N2CCC(C)(C(N)=O)CC2)c2nc(-c3ccccc3Cl)n(-c3ccc(Cl)cc3)c2n1",
    "IC50": "0.52 nM"
  }
]

###

Target: human CB1 receptor (Homo sapiens)
Construct: expressed in transfected cells; host or cells: HEK293
Test: bioSensAll β-arrestin2 plasma membrane translocation (+GRK2) BRET biosensor assay in HEK293 cells transfected with hCB1; test compound added before EC75-80 of agonist CP55,940 (100 nM)
Type: cell-based
Settings: βArrestin2 (+GRK2) BRET biosensor, vs CP55,940 100 nM (EC75-80), read-out: CB1 wt βarr2 IC50
Method: Using polyethylenimine (PEI) transfection agent, HEK293 cells were transfected in suspension with the human CB1 receptor and one of the following bioSensAll® assays: GAPL-Gi2, or β-arrestin plasma membrane (PM) translocation biosensor (+GRK2). Cells were directly seeded in 96-well plates immediately following transfection. Cells were incubated with coelenterazine (luciferase substrate) and different test compounds prior to the measurement of BRET signals. […]
Mark yes only when IC50 stays strictly below 6 nM. Values equal to the cut-off are no.

[
  {
    "compound": "CO[C@H]1CCN(c2nc(N3CCC(C)(C(N)=O)CC3)c3nc(-c4ccccc4Cl)n(-c4ccc(Cl)cc4)c3n2)C1",
    "experimental_system": "human CB1 receptor (Homo sapiens)",
    "cat": "no"
  },
  {
    "compound": "C[C@@H](CO)N(C)c1nc(N2CCC(C)(C(N)=O)CC2)c2nc(-c3ccccc3Cl)n(-c3ccc(Cl)cc3)c2n1",
    "experimental_system": "human CB1 receptor (Homo sapiens)",
    "cat": "yes"
  },
  {
    "compound": "CN(CCO)c1nc(N2CCC(C)(C(N)=O)CC2)c2nc(-c3ccccc3Cl)n(-c3ccc(Cl)cc3)c2n1 [Compound 19]",
    "experimental_system": "human CB1 receptor (Homo sapiens)",
    "cat": "yes"
  },
  {
    "compound": "COC(=O)N1CCN(c2nc(N(C)CCO)nc3c2nc(-c2ccccc2Cl)n3-c2ccc(Cl)cc2)CC1",
    "experimental_system": "human CB1 receptor (Homo sapiens)",
    "cat": "yes"
  },
  {
    "compound": "CCOC1(C(N)=O)CCN(c2nc(N(C)CCO)nc3c2nc(-c2ccccc2Cl)n3-c2ccc(Cl)cc2)CC1",
    "experimental_system": "human CB1 receptor (Homo sapiens)",
    "cat": "yes"
  },
  {
    "compound": "OC[C@@H]1CCCN1c1nc(-c2ccc(C(F)(F)F)nc2)c2nc(-c3ccccc3Cl)n(-c3ccc(Cl)cc3)c2n1",
    "experimental_system": "human CB1 receptor (Homo sapiens)",
    "cat": "yes"
  },
  {
    "compound": "CC1(C(N)=O)CCN(c2nc(N3CC[C@H](O)C3)nc3c2nc(-c2ccccc2Cl)n3-c2ccc(Cl)cc2)CC1",
    "experimental_system": "human CB1 receptor (Homo sapiens)",
    "cat": "yes"
  },
  {
    "compound": "CN(CCO)c1nc(N2CCC(C)(C(N)=O)CC2)c2nc(-c3ccc(C#N)nc3)n(-c3ccc(Cl)cc3)c2n1",
    "experimental_system": "human CB1 receptor (Homo sapiens)",
    "cat": "yes"
  },
  {
    "compound": "FC(F)(F)C1CCN(c2nc(N3C[C@H]4CCC[C@H]4C3)nc3c2nc(-c2ccccc2Cl)n3-c2ccc(Cl)cc2)CC1",
    "experimental_system": "human CB1 receptor (Homo sapiens)",
    "cat": "no"
  },
  {
    "compound": "FC(F)(F)C1CCN(c2nc(N3C[C@H]4C[C@H]4C3)nc3c2nc(-c2ccccc2Cl)n3-c2ccc(Cl)cc2)CC1",
    "experimental_system": "human CB1 receptor (Homo sapiens)",
    "cat": "no"
  },
  {
    "compound": "CC1(C(N)=O)CCN(c2nc(N3CCC[C@@H]3CO)nc3c2nc(-c2ccccc2Cl)n3-c2ccc(Cl)cc2)CC1",
    "experimental_system": "human CB1 receptor (Homo sapiens)",
    "cat": "no"
  },
  {
    "compound": "CCN(CCO)c1nc(N2CCC(C)(C(N)=O)CC2)c2nc(-c3ccccc3Cl)n(-c3ccc(Cl)cc3)c2n1",
    "experimental_system": "human CB1 receptor (Homo sapiens)",
    "cat": "yes"
  },
  {
    "compound": "O=S1(=O)CCN(c2nc(N3CCC(C(F)(F)F)CC3)c3nc(-c4ccccc4Cl)n(-c4ccc(Cl)cc4)c3n2)CC1",
    "experimental_system": "human CB1 receptor (Homo sapiens)",
    "cat": "yes"
  },
  {
    "compound": "CCNC1(C(N)=O)CCN(c2nc(NCCO)nc3c2nc(-c2ccccc2Cl)n3-c2ccc(Cl)cc2)CC1",
    "experimental_system": "human CB1 receptor (Homo sapiens)",
    "cat": "yes"
  },
  {
    "compound": "CCOC(=O)c1cn(-c2nc(N3CCC(C)(C(N)=O)CC3)c3nc(-c4ccccc4Cl)n(-c4ccc(Cl)cc4)c3n2)cn1",
    "experimental_system": "human CB1 receptor (Homo sapiens)",
    "cat": "no"
  },
  {
    "compound": "CC(C)(O)COc1nc(-c2ccc(C(F)(F)F)nc2)c2nc(-c3ccccc3Cl)n(-c3ccc(Cl)cc3)c2n1",
    "experimental_system": "human CB1 receptor (Homo sapiens)",
    "cat": "yes"
  },
  {
    "compound": "CC1(C(N)=O)CCN(c2nc(-n3cnc(CCO)c3)nc3c2nc(-c2ccccc2Cl)n3-c2ccc(Cl)cc2)CC1",
    "experimental_system": "human CB1 receptor (Homo sapiens)",
    "cat": "no"
  }
]

###

pIC50 listing for selected molecules.
target: human CB1 receptor (Homo sapiens, UniProt P21554); construct: expressed in transfected cells; host or cells: HEK293; experiment: bioSensAll β-arrestin2 plasma membrane translocation (+GRK2) BRET biosensor assay in HEK293 cells transfected with hCB1; test compound added before EC75-80 of agonist CP55,940 (100 nM); assay type: cell-based; conditions: βArrestin2 (+GRK2) BRET biosensor, vs CP55,940 100 nM (EC75-80), read-out: CB1 wt βarr2 IC50
Sequence (P21554 whole entry): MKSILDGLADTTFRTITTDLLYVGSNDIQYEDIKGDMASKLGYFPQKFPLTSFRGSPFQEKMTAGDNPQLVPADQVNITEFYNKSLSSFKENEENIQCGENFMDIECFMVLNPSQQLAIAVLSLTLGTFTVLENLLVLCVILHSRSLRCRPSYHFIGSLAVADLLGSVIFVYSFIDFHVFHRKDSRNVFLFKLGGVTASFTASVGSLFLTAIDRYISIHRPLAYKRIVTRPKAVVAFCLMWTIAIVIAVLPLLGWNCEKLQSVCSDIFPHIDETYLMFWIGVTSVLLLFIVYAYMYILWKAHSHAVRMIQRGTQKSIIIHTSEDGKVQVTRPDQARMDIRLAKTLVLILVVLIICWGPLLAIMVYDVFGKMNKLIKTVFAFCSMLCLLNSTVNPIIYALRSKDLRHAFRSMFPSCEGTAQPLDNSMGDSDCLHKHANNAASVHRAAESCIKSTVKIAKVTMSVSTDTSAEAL
pIC50: −log10 of the molar value.

[
  {
    "molecule": "CN(C)C(=O)c1nc(N2CCC(C)(C(N)=O)CC2)c2nc(-c3ccccc3Cl)n(-c3ccc(Cl)cc3)c2n1",
    "pIC50": 7.20
  },
  {
    "molecule": "CC1(C(N)=O)CCN(c2nc(N3CCC[C@H]3CO)nc3c2nc(-c2ccccc2Cl)n3-c2ccc(Cl)cc2)CC1",
    "pIC50": 9.25
  },
  {
    "molecule": "CC(C)(O)COc1nc(N2CCNCC(F)(F)C2)c2nc(-c3ccccc3Cl)n(-c3ccc(Cl)cc3)c2n1",
    "pIC50": 7.51
  },
  {
    "molecule": "CN(CCO)c1nc(N2CCO[C@H](CO)C2)c2nc(-c3ccccc3Cl)n(-c3ccc(Cl)cc3)c2n1",
    "pIC50": 8.46
  },
  {
    "molecule": "COCCOc1nc(N2CCC(C)(C(N)=O)CC2)c2nc(-c3ccccc3Cl)n(-c3ccc(Cl)cc3)c2n1",
    "pIC50": 8.17
  },
  {
    "molecule": "CCOC1(C(N)=O)CCCN(c2nc(OCC(C)(C)O)nc3c2nc(-c2ccccc2Cl)n3-c2ccc(Cl)cc2)C1 (single isomer, unassigned) [Compound 216]",
    "pIC50": 8.06
  },
  {
    "molecule": "CCN1CCN(c2nc(OCC(C)(C)O)nc3c2nc(-c2ccccc2Cl)n3-c2ccc(Cl)cc2)CC1",
    "pIC50": 7.91
  }
]
